Each entry below carries its reported TGI.
Test system: PC-3 prostate
Procedure Summary: NCI tumour cell line growth inhibition, 48 h

* Cc1ccc2nc3ccccc3c(C3C4C(=O)N(c5ccc(Br)cc5Cl)C(=O)C4ON3C(C(N)=O)c3ccccc3)c2c1 (stereo unspecified) | > 25 µM

stdin: Report TGI for "Cc1[nH]c(N=Nc2ccccc2)nc1N=Nc1ccccc1" please.
stdout: > 51.6 µM

stdin: Lookup "COc1cc2c(/C=C3/C(=O)Nc4cccc(Cl)c43)c(Cl)n(Cc3ccccc3)c2cc1C"
stdout: > 38 µM

----------
System: ACHN renal
Procedure Summary: NCI tumour cell line growth inhibition, 48 h
Each entry below carries its reported TGI.

* COc1ccc(OC(=O)O[C@H]2[C@H](O[C@H]3[C@@H](O)COC(O[C@H]4C[C@H]5[C@@H]6CC=C7C[C@@H](O)CC[C@]7(C)[C@H]6CC[C@]5(C)[C@H]4[C@H](C)C(=O)CCC(C)C)[C@@H]3OC(C)=O)OC[C@@H](O)[C@@H]2O)cc1 (stereo partly drawn) | 18 µM

stdin: Report TGI for "Nc1nccc(-c2c(-c3ccc(F)cc3)ncn2CCCN2CCOCC2)n1" please.
stdout: > 25 µM

stdin: Lookup C1=C2C3=[N+](CCCC3)CC2Cc2ccsc21 (stereo not drawn)
stdout: > 100 µM

stdin: Lookup CCOC(=O)CC(NC(=O)c1nc[nH]c1[N+](=O)[O-])C(=O)OCC (stereo not drawn)
stdout: > 100 µM

stdin: Lookup "COc1ccc(-c2c(C#N)c(NC(=S)NC(=O)c3ccccc3)nc3c2CCCC3)cc1OC"
stdout: > 100 µM

stdin: Lookup "C=CCN1C(=O)/C(=C/c2ccccc2)NC1=S"
stdout: > 100 µM

stdin: Lookup "Nc1c(-c2ccc(Br)cc2)[n+]([O-])c2ccccc2[n+]1[O-]"
stdout: > 100 µM

----------
A set of molecules tested on RPMI-8226 leukemia, with measured GI50:

Below, 5 molecules whose answers are already recorded.
• CC(=O)OC[C@]12CC[C@H]3[C@@H](C[C@H]4O[C@]45CC=CC(=O)[C@]35C)[C@]1(O)CC[C@@]2(O)[C@@](C)(O)C1CC(C)=C(C)C(=O)O1 (some centres not stated) = > 100000 nM
• Cn1cc(C2=C(c3cn(CCCN=C(N)N)c4ccccc34)C(=O)NC2=O)c2ccccc21 = > 25000 nM
• CCOC(=O)c1c(C)n(Cc2ccc(OC)cc2)c2c1cc(O)c1[nH]c3c(c12)CCCC3 = 3780 nM
• CC(=O)[O][Hg][c]1c(C)c(C)c(C)c(C)c1C = 1800 nM
• O=C(C[C@@H](C(=O)NCc1cccc(C(F)(F)F)c1)N1C(=O)[C@@H](N2C(=O)OC[C@@H]2c2ccccc2)[C@H]1/C=C/c1ccccc1)NC1CCN(Cc2ccccc2)CC1 = 2220 nM

stdin: Report GI50 for "COc1cc2c3c(n(CCCCl)c(=O)c2cc1OC)-c1ccccc1C3=O" please.
stdout: 25400 nM

stdin: Lookup "COc1cccc(NCc2nnc(Nc3ccc(Cl)cc3)c3ccccc23)c1"
stdout: 1480 nM

----------
Tested on: MOLT-4 leukemia
Procedure Summary: NCI tumour cell line growth inhibition, 48 h
Each entry below carries its reported TGI.

Below, 8 compounds whose answers are already recorded.
• O=c1[nH]c(=O)n(C2CC(O)C(CS)O2)cc1F (centres undefined) = > 100 µM
• CN(C)C(=S)SN(C)C(=O)Nc1ccccc1 = 85.8 µM
• COc1cc(Cn2c(-c3ccccc3)cc3c2-c2oncc2CC3)cc(OC)c1OC = > 100 µM
• NCC(=O)NC(CCCC(NC(=O)CN)P(=O)(O)O)P(=O)(O)O (centres undefined) = > 100 µM
• Nc1nccc(-c2c(-c3ccc(F)cc3)ncn2CCCN2CCOCC2)n1 = > 25 µM
• CC(C)(C)OC(=O)N(CCCN(CCn1c2c(c3ccccc3c1=O)C(=O)c1ccccc1-2)C(=O)OC(C)(C)C)CCn1c2c(c3ccccc3c1=O)C(=O)c1ccccc1-2 = 16 µM
• CC[C@@H]1/C=C/C=C/C[C@H](C)[C@@H](O)[C@](C)(O)C(=O)[C@H](C)[C@@H](O)[C@H](C)C(=O)[C@H](C)[C@@H](O)[C@H](C)/C=C/C(=O)O[C@H]2[C@@H](C)[C@@H](CC1)O[C@]1(O[C@H](CC(C)O)[C@H](C)CC1=O)[C@@H]2C (some centres undefined) = 11.3 µM
• COc1ccc(/C(=N/Nc2ccc([N+](=O)[O-])cc2)Sc2cc(Cl)c(C)cc2S(N)(=O)=O)cc1 = 16.5 µM

Next, consider the following compound.
stdin: Report TGI for "CC(=O)c1ccc(NC(=O)/C(Cc2ccccn2)=N/NC(=O)C[N+](C)(C)C)cc1" please.
stdout: > 100 µM
